Target chain: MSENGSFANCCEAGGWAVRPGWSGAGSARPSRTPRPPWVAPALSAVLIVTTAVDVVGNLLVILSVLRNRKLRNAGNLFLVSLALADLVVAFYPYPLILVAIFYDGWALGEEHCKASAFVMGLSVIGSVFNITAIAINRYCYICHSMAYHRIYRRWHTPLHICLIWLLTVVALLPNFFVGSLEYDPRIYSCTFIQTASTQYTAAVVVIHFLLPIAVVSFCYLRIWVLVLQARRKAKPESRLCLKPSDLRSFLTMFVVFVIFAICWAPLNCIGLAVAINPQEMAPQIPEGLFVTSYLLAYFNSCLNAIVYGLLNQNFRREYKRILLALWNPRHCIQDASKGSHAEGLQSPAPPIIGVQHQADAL
Counter-ions that a name gives are not always drawn.
measured.endpoint: Ki

molecule="CCC(=O)NCCc1cncc2ccc(OC)cc12 [Example 10, hydrochloride]" observed_value="1.14 nM"
molecule="COc1ccc2cncc(CCNC(C)=O)c2c1.Cl [Example 9, hydrochloride]" observed_value="2.16 nM"
